# Test system: LXRa homodimer (NR concentration 270 nM)
# Assay Text: PBM binding z-score (relative to random genomic background probes); higher = stronger binding; sequences stand for … in GC…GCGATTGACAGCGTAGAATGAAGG
Catalogue of PBM binding z-score values

Sequence	Tested On	PBM binding z-score
GCGACTGGGGCAAAGCAGGTCACCATAAGGTTGG	LXRa homodimer (NR concentration 270 nM)	-0.00602
TCTCGGAGGACACGAAGGTCCGAGCTTTCCAGAG	LXRa homodimer (NR concentration 270 nM)	-0.723
CAAACTAGGTGAAAGGTCAAAGTCGAGCCAACCA	LXRa homodimer (NR concentration 270 nM)	4.36
ATCTAAAGGTCGAGGTGAGTATAGAGAAAGGGAA	LXRa homodimer (NR concentration 270 nM)	0.751
